Experiment: Cytotoxicity, MTT assay
Assay type: cell-based
Settings: human, C8166 cells
Measured CC50 at 3 days accompanies every entry in the list below.

compound	endpoint_unit	CC50 at 3 days
O=C(O)c1cc(O)c2c(c1)[C@H]([C@H]1c3cc(C(=O)O)cc(O)c3C(=O)c3c(O[C@@H]4O[C@H](CO)[C@@H](O)[C@H](O)[C@H]4O)cccc31)c1cccc(O[C@@H]3O[C@H](CO)[C@@H](O)[C@H](O)[C@H]3O)c1C2=O [Sennoside A, sennoside A]	µM	22.6
O=C(O)c1cc(O)c2c(c1)[C@@H]([C@H]1c3cc(C(=O)O)cc(O)c3C(=O)c3c(O[C@@H]4O[C@H](CO)[C@@H](O)[C@H](O)[C@H]4O)cccc31)c1cccc(O[C@@H]3O[C@H](CO)[C@@H](O)[C@H](O)[C@H]3O)c1C2=O [Sennoside B, sennoside B]	µM	33.4

* * *

Measured inhibition at 50 µM accompanies every entry in the list below.
Target: HIV-1 CA CTD/CAI interaction (Human immunodeficiency virus type 1 group M subtype B, UniProt P12493)
Construct: DNA encoding the CA CTD was cloned into BamHI-NotI sites of prokaryotic expression vector pGEX-4 T-1; made in house; host or cells: E. coli BL21(DE3)
Experiment: biochemical
Type: binding
Details: primary screening, compound at 50 μM, duplicate; read-out: IR (%), inhibitory rate

molecule	inhibition at 50 µM [%]
O=C(O)c1cc(O)c2c(c1)[C@@H]([C@H]1c3cc(C(=O)O)cc(O)c3C(=O)c3c(O[C@@H]4O[C@H](CO)[C@@H](O)[C@H](O)[C@H]4O)cccc31)c1cccc(O[C@@H]3O[C@H](CO)[C@@H](O)[C@H](O)[C@H]3O)c1C2=O [Sennoside B, sennoside B]	95.1
O=C(O)c1cc(O)c2c(c1)[C@H]([C@H]1c3cc(C(=O)O)cc(O)c3C(=O)c3c(O[C@@H]4O[C@H](CO)[C@@H](O)[C@H](O)[C@H]4O)cccc31)c1cccc(O[C@@H]3O[C@H](CO)[C@@H](O)[C@H](O)[C@H]3O)c1C2=O [Sennoside A, sennoside A]	94.7
CCCCCCCCCCCC1=C(O)C(=O)C=C(O)C1=O	94.3
CC[C@H](C)C[C@H](C)CCCCCCCCC(=O)N[C@H]1C[C@@H](O)[C@@H](NCCN)NC(=O)[C@@H]2[C@@H](O)CCN2C(=O)[C@H]([C@H](O)CCN)NC(=O)[C@H]([C@H](O)[C@@H](O)c2ccc(O)cc2)NC(=O)[C@@H]2C[C@@H](O)CN2C(=O)[C@H]([C@@H](C)O)NC1=O	94.2

These data points were gathered from paper PMC10561090.
